Where do the numbers come from? From paper PMC5540273.

Tested on: p38-gamma
Construct: gene MAPK12
Conditions: concentration: 1 μM, replicates: in singlicate; n = 1;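 also: KINOMEscan kinase panel screen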
# key: entry, value: %Inh
endpoint name: %Inh (%)

| compound | endpoint name | uom | numeric value |
| --- | --- | --- | --- |
| O=C(Nc1ccc2c(c1)OCO2)NC1CCN(c2ccnc(NCc3ccc(F)cc3)n2)CC1 | %Inh | % | 0 |
| Nc1n[nH]c2nnc(-c3ccccc3)c(-c3ccccc3)c12 | %Inh | % | 0 |
| O=C(Nc1n[nH]c2nc(-c3ccccc3)c(Cl)cc12)C1CC1 | %Inh | % | 27 |
| Nc1ncnc2c1ncn2-c1cccc(F)c1 | %Inh | % | 48 |
| Fc1cccc(CSc2nnc(-c3ccc4c(c3)CCO4)o2)c1 | %Inh | % | 21 |
| O=C(Nc1n[nH]c2cc(-c3ccccc3F)ccc12)C1CC1 | %Inh | % | 19 |
| COC(=O)c1c(-c2ccccc2)c2cc(C)ccc2c(=O)n1Cc1ccccc1 | %Inh | % | 0 |
| FC(F)(F)c1ccc(-c2ncn(CCCN3CCOCC3)c2-c2ccncc2)cc1 | %Inh | % | 2 |
| CC(C)(C)c1ccc(C(=O)Nc2cn3cc(-c4ccccc4)ccc3n2)cc1 | %Inh | % | 8 |

----------
Test system: ROCK2
Details: concentration: 1 μM, replicates: in singlicate; n = 1
Measured %Inh by item

| compound | %Inh [%] |
| --- | --- |
| COc1cc2nccc(Nc3ccc(OCc4ccc(NC(C)=O)cc4)cc3)c2cc1OC.Cl [GW440135] | 6 |
| FC(F)(F)c1ccc(-c2ncn(CCCN3CCOCC3)c2-c2ccncc2)cc1 [SB-217780] | 0 |
| COc1ccc(-c2cc3c(C)nc(N)nc3n([C@H]3CC[C@H](O)CC3)c2=O)cn1 | 0 |
| COc1cc(Nc2nccc(N3CCC(NC(=O)C4COc5ccccc5O4)C3)n2)cc(OC)c1OC (stereo not shown) [GSK1379761] | 37 |
| Cc1ccc(-c2ccc3c(ccc4sc5c(c43)NC[C@@H](C)N=C5N(C)C)n2)cn1 | 0 |
| COc1cc2nccc(Nc3cccc(Oc4ccccc4)c3)c2cc1OC.Cl [GW284543] | 51 |
| CCn1c(-c2nonc2N)nc2ccccc21 [SB-693162/GW549034] | 76 |
| COC(=O)c1c(-c2ccccc2)c2cc(Br)ccc2c(=O)n1Cc1ccc(S(C)(=O)=O)cc1 | 0 |
| CN1C(=O)C(Nc2cc(Cl)c(O)c(Cl)c2)=C(c2ccc(Cl)cc2)C1=O [SB-404321] | 0 |
| COC(=O)c1c(-c2ccccc2)c2cc(Br)ccc2c(=O)n1Cc1ccc(NC(=O)CCC(=O)O)cc1 | 0 |
| Cc1nc(N(C)[C@H]2CN(C(=O)CC#N)CC[C@H]2C)c2cc[nH]c2n1 | 0 |
| O=C(NCc1cccs1)c1cc(C(=O)c2c(Cl)cccc2Cl)c[nH]1 [GW823670] | 0 |
| COc1cc2ncn(-c3cc(OCc4ccncc4)c(C(N)=O)s3)c2cc1OC [GSK336313] | 0 |
| COc1cc(Nc2nccc(N3CCC(NC(=O)C(C)c4ccc(Cl)cc4)C3)n2)cc(OC)c1OC (stereo not shown) [GSK1379757] | 0 |
| Nc1ncnc2c1ncn2-c1cccc(F)c1 [SKF-97560] | 28 |
| Fc1cccc(CSc2nnc(-c3ccc4c(c3)CCO4)o2)c1 | 0 |
| CCS(=O)c1ccc(-c2coc3ccc(-c4nnc(C)o4)cc23)cc1 (stereo not shown) | 28 |
| Nc1n[nH]c2ncc(-c3ccccc3)cc12 [SB-517081] | 2 |
| COc1cc(Nc2ccnc3ccc(C(F)(F)F)cc23)cc(OC)c1OC [GW577382] | 15 |

----------
Tested on: PDGFRA
Conditions: concentration: 1 μM, replicates: in singlicate; n = 1
// reported %Inh per item

| molecule | %Inh / % |
| --- | --- |
| Cc1cc(Nc2nc(-c3cccc(C)n3)nc3ccccc23)ccn1 [GW872411] | 0 |
| C[C@@H]1CC[C@H](C(=O)NC2CCCCC2)CN1c1cc(-c2ccc3c(N)n[nH]c3c2)nc(N)n1 [GSK2291363] | 0 |
| Cc1nnc(-c2ccc(C)c(-c3ccc(C(=O)O)cc3)c2)o1 [GW608005] | 0 |
| Nc1ncnc2c1ncn2-c1cccc2ccccc12 [SKF-97184] | 0 |
| COc1cc2ncn(-c3cc(OCc4ccc(S(C)(=O)=O)cc4)c(C(N)=O)s3)c2cc1OC [GW869979] | 30 |
| Cn1c(=O)c(F)c(Nc2ccc(I)cc2F)c2c(=O)n(OC[C@H](O)CO)cnc21 | 0 |
| COc1ccc(CNC(=O)NC2CCN(c3ccnc(Nc4ccc(F)cc4)n3)C2)cc1 (stereo not shown) [GSK1379706] | 14 |
| CCn1c(-c2ccoc2)nc2cnccc21 [SB-733887] | 63 |
| COc1cc2ncn(-c3cc(OCc4ccncc4Br)c(C(N)=O)s3)c2cc1OC [GW854278] | 39 |
| CN1C(=O)C(Nc2ccccc2)=C(c2ccccc2)C1=O [SB-300079] | 0 |
| CCC(=O)c1c(-c2ccccc2)c2cc(Cl)ccc2c(=O)n1Cc1ccc(C(=O)O)cc1 | 19 |
| Nc1n[nH]c2nnc(-c3ccccc3)c(-c3ccccc3)c12 [GW554060] | 0 |
| COc1ccc(-c2cc3c(C)nc(N)nc3n([C@H]3CC[C@H](O)CC3)c2=O)cn1 | 0 |
| COc1cc(Nc2ccnc3ccc(C(F)(F)F)cc23)cc(OC)c1OC [GW577382] | 0 |
| Cc1cccc(-c2nc(Nc3ccc4c(cnn4C)c3)c3ccccc3n2)n1 [GW876731] | 9 |
| Cc1nn2c(=O)cc(N3CCOCC3)nc2n1Cc1cccc(Cl)c1Cl [GSK2342769] | 0 |
| COc1cccc(C2=C(N(C)c3ccccc3)C(=O)NC2=O)c1 [SB-334865] | 0 |
| Cc1ccc(-c2ccc3c(ccc4sc5c(c43)NC[C@@H](C)N=C5N(C)C)n2)cn1 | 0 |
| Cc1ccc(Oc2ccc(Nc3ncnc4cc[nH]c34)cc2C)cn1 | 49 |
| Cc1nnc(-c2ccc3ncn(-c4ccc(S(C)=O)cc4)c3c2)o1 (stereo not shown) | 17 |
| CCc1ccc(-c2ccc3c(c2)-c2nn(C)cc2S(=O)(=O)N3C)cc1 | 0 |
| Cl.NS(=O)(=O)c1cccc(Nc2cc(-c3ccc(F)cc3)n[nH]2)c1 [GW824645] | 75 |
| COC(=O)c1c(-c2ccccc2)c2cc(C)ccc2c(=O)n1Cc1ccccc1 | 42 |
| COc1ccc(-n2cnc3c(N)ncnc32)cc1 [SKF-97236] | 63 |
| COc1cc2ncn(-c3cc(OCc4ccncc4)c(C(N)=O)s3)c2cc1OC [GSK336313] | 0 |
| COc1ccc(-c2coc3ccc(-c4nnc(SCc5cccc(C#N)c5)o4)cc23)cc1 | 20 |
| Cl.c1ccc(Cn2cnc3cc(Nc4ncnc5ccccc45)ccc32)cc1 [GW272142] | 0 |
| OCCCNc1nccc(-c2c(-c3cccc(C(F)(F)F)c3)nn3cc(C(F)(F)F)ccc23)n1 [GW630813] | 0 |
| COC(=O)c1c(-c2ccccc2)c2cc(Br)ccc2c(=O)n1Cc1ccc(S(C)(=O)=O)cc1 | 8 |
| O=c1cc(N2CCOCC2)nc2n(Cc3ccc(F)c(Cl)c3)ccn12 [GSK2297099] | 7 |
| O=C1NC(=O)C(c2ccccc2)=C1Nc1cccc(O)c1 [SB-390534] | 0 |
| O=C(Nc1n[nH]c2nc(-c3ccccc3)c(Br)cc12)C1CC1 [SB-708998] | 20 |
| CN(C)c1cc(-c2ccc3c(N)n[nH]c3c2)nc(N)n1 [GSK2219329] | 0 |
| CCC(=O)c1c(-c2ccccc2)c2cc(Cl)ccc2c(=O)n1Cc1cc(S(C)(=O)=O)n(CCC(C)(C)O)n1 | 0 |
| FC(F)(F)c1ccc(-c2ncn(CCCN3CCOCC3)c2-c2ccncc2)cc1 [SB-217780] | 34 |
| COc1cc(Nc2nccc(N3CCC(NC(=O)C(C)c4ccc(Cl)cc4)C3)n2)cc(OC)c1OC (stereo not shown) [GSK1379757] | 0 |
| O=C(Nc1ccc2c(c1)OCO2)NC1CCN(c2ccnc(NCc3ccc(F)cc3)n2)CC1 [GSK1379859] | 0 |

----------
# %Inh per entry
Test system: PHKG2
Settings: concentration: 1 μM, replicates: in singlicate; n = 1

| compound | %Inh [%] |
| --- | --- |
| OCCCNc1nccc(-c2c(-c3cccc(C(F)(F)F)c3)nn3cc(C(F)(F)F)ccc23)n1 | 5 |
| Cc1c(Cn2c(C)nn3c(=O)cc(N4CCO[C@H](C)C4)nc23)cccc1C(F)(F)F | 0 |
| O=c1cc(N2CCOCC2)nc2n(Cc3ccc(F)c(Cl)c3)ccn12 | 0 |
